# Tested on: Mannheimia haemolytica
# experimental protocol: minimum inhibitory concentration (MIC)
# condition context: isolate (source animal id): 172
What minimum inhibitory concentration was measured for each of the following?
Only the number, expressed in mg/L, is required.

# input # return recorded minimum inhibitory concentration for entry "C=C[C@]1(C)C[C@@H](OC(=O)CSCCN(CC)CC)[C@]2(C)[C@H](C)CC[C@]3(CCC(=O)[C@H]32)[C@@H](C)[C@@H]1O"
# output 32

# input # return recorded minimum inhibitory concentration for entry "CC[C@H]1OC(=O)C[C@@H](O)[C@H](C)[C@@H](O[C@@H]2O[C@H](C)[C@@H](O)[C@H](N(C)C)[C@H]2O)[C@@H](CCN2CCCCC2)C[C@@H](C)C(=O)/C=C/C(C)=C/[C@@H]1CN1CCCCC1"
# output 2

---

# Tested on: Escherichia coli
# experimental protocol: minimum inhibitory concentration (MIC)
# condition context: isolate (source animal id): 15
reported metric: minimum inhibitory concentration

# input # return recorded minimum inhibitory concentration for entry CC[C@H]1OC(=O)C[C@@H](O)[C@H](C)[C@@H](O[C@@H]2O[C@H](C)[C@@H](O)[C@H](N(C)C)[C@H]2O)[C@@H](CCN2C[C@H](C)C[C@H](C)C2)C[C@@H](C)C(=O)/C=C/C(C)=C/[C@@H]1CO[C@@H]1O[C@H](C)[C@@H](O)[C@@H](OC)[C@H]1OC [Tilmicosin]
# output > 16 µg/mL

# input # return recorded minimum inhibitory concentration for entry NC[C@@H]1O[C@H](O[C@H]2[C@@H](O)[C@H](O[C@@H]3[C@@H](O)[C@H](N)C[C@H](N)[C@H]3O[C@H]3O[C@H](CN)[C@@H](O)[C@H](O)[C@H]3N)O[C@@H]2CO)[C@H](N)[C@@H](O)[C@@H]1O [Neomycin]
# output ≤ 4 µg/mL

# input # return recorded minimum inhibitory concentration for entry CC1(C)S[C@@H]2[C@H](NC(=O)Cc3ccccc3)C(=O)N2[C@H]1C(=O)O [Penicillin]
# output > 8 µg/mL

---

# Test system: Pasteurella multocida
# experimental protocol: minimum inhibitory concentration (MIC)
# condition context: isolate (source animal id): 316
What minimum inhibitory concentration was measured for each of the following?

# input Give minimum inhibitory concentration; test system Pasteurella multocida; compound CC[C@H]1OC(=O)C[C@@H](O)[C@H](C)[C@@H](O[C@@H]2O[C@H](C)[C@@H](O)[C@H](N(C)C)[C@H]2O)[C@@H](CCN2CCCCC2)C[C@@H](C)C(=O)/C=C/C(C)=C/[C@@H]1CN1CCCCC1 [Tildipirosin]
# output > 16 µg/mL

# input Give minimum inhibitory concentration; test system Pasteurella multocida; compound CCC[C@@H]1C[C@@H](C(=O)N[C@@H]([C@H]2O[C@H](SC)[C@H](O)[C@@H](O)[C@H]2O)[C@H](C)Cl)N(C)C1 [Clindamycin]
# output > 16 µg/mL

# input Give minimum inhibitory concentration; test system Pasteurella multocida; compound NC[C@@H]1O[C@H](O[C@H]2[C@@H](O)[C@H](O[C@@H]3[C@@H](O)[C@H](N)C[C@H](N)[C@H]3O[C@H]3O[C@H](CN)[C@@H](O)[C@H](O)[C@H]3N)O[C@@H]2CO)[C@H](N)[C@@H](O)[C@@H]1O [Neomycin]
# output > 32 µg/mL

# input Give minimum inhibitory concentration; test system Pasteurella multocida; compound CN[C@@H]1[C@H](O)[C@H](NC)[C@H]2O[C@@]3(O)C(=O)C[C@@H](C)O[C@H]3O[C@@H]2[C@H]1O [Spectinomycin]
# output 32 µg/mL

# input Give minimum inhibitory concentration; test system Pasteurella multocida; compound CC1(C)S[C@@H]2[C@H](NC(=O)Cc3ccccc3)C(=O)N2[C@H]1C(=O)O [Penicillin]
# output 0.25 µg/mL

# input Give minimum inhibitory concentration; test system Pasteurella multocida; compound CN(C)[C@@H]1C(O)=C(C(N)=O)C(=O)[C@@]2(O)C(O)=C3C(=O)c4c(O)cccc4[C@@](C)(O)[C@H]3C[C@@H]12 [Tetracycline]
# output > 8 µg/mL

---

# System: Pasteurella multocida
# experimental protocol: minimum inhibitory concentration (MIC)
# condition context: isolate (source animal id): 192
What minimum inhibitory concentration was measured for each of the following?

# input # return recorded minimum inhibitory concentration for entry "COc1cc(NS(=O)(=O)c2ccc(N)cc2)nc(OC)n1"
# output > 256 mg/L

# input # return recorded minimum inhibitory concentration for entry "CN(C)[C@@H]1C(O)=C(C(N)=O)C(=O)[C@@]2(O)C(O)=C3C(=O)c4c(O)cccc4[C@@](C)(O)[C@H]3C[C@@H]12"
# output > 8 mg/L

# input # return recorded minimum inhibitory concentration for entry "CS(=O)(=O)c1ccc([C@@H](O)[C@@H](CF)NC(=O)C(Cl)Cl)cc1"
# output 0.5 mg/L

# input # return recorded minimum inhibitory concentration for entry "NC[C@@H]1O[C@H](O[C@H]2[C@@H](O)[C@H](O[C@@H]3[C@@H](O)[C@H](N)C[C@H](N)[C@H]3O[C@H]3O[C@H](CN)[C@@H](O)[C@H](O)[C@H]3N)O[C@@H]2CO)[C@H](N)[C@@H](O)[C@@H]1O"
# output > 32 mg/L

# input # return recorded minimum inhibitory concentration for entry "CC[C@H]1OC(=O)C[C@@H](O)[C@H](C)[C@@H](O[C@@H]2O[C@H](C)[C@@H](O)[C@H](N(C)C)[C@H]2O)[C@@H](CCN2CCCCC2)C[C@@H](C)C(=O)/C=C/C(C)=C/[C@@H]1CN1CCCCC1"
# output ≤ 1 mg/L

# input # return recorded minimum inhibitory concentration for entry "CCC[C@@H]1C[C@@H](C(=O)N[C@@H]([C@H]2O[C@H](SC)[C@H](O)[C@@H](O)[C@H]2O)[C@H](C)Cl)N(C)C1"
# output > 16 mg/L

# input # return recorded minimum inhibitory concentration for entry "CN1C[C@@H]2C[C@H]1CN2c1cc2c(cc1F)c(=O)c(C(=O)O)cn2C1CC1"
# output ≤ 0.12 mg/L

---

What minimum inhibitory concentration was measured for each of the following?
# System: Escherichia coli
# experimental protocol: minimum inhibitory concentration (MIC)
# condition context: isolate (source animal id): 149

# input # return recorded minimum inhibitory concentration for entry "NC[C@@H]1O[C@H](O[C@H]2[C@@H](O)[C@H](O[C@@H]3[C@@H](O)[C@H](N)C[C@H](N)[C@H]3O[C@H]3O[C@H](CN)[C@@H](O)[C@H](O)[C@H]3N)O[C@@H]2CO)[C@H](N)[C@@H](O)[C@@H]1O"
# output ≤ 4 µg/mL

# input # return recorded minimum inhibitory concentration for entry CNC(C)C1CCC(N)C(OC2C(N)CC(N)C(OC3OCC(C)(O)C(NC)C3O)C2O)O1 (stereo not drawn)
# output ≤ 1 µg/mL

# input # return recorded minimum inhibitory concentration for entry "CC[C@H]1OC(=O)C[C@@H](O)[C@H](C)[C@@H](O[C@@H]2O[C@H](C)[C@@H](O)[C@H](N(C)C)[C@H]2O)[C@@H](CCN2C[C@H](C)C[C@H](C)C2)C[C@@H](C)C(=O)/C=C/C(C)=C/[C@@H]1CO[C@@H]1O[C@H](C)[C@@H](O)[C@@H](OC)[C@H]1OC"
# output > 16 µg/mL

---

# Test system: Enterococcus spp.
# experimental protocol: minimum inhibitory concentration (MIC)
# condition context: isolate (source animal id): 230
reported metric: minimum inhibitory concentration (µg/mL)
Only the number, expressed in µg/mL, is required.

# input # return recorded minimum inhibitory concentration for entry "CS(=O)(=O)c1ccc([C@@H](O)[C@@H](CF)NC(=O)C(Cl)Cl)cc1"
# output 2

# input # return recorded minimum inhibitory concentration for entry "CN1C[C@@H]2C[C@H]1CN2c1cc2c(cc1F)c(=O)c(C(=O)O)cn2C1CC1"
# output 0.5

# input # return recorded minimum inhibitory concentration for entry "CN[C@@H]1[C@H](O)[C@H](NC)[C@H]2O[C@@]3(O)C(=O)C[C@@H](C)O[C@H]3O[C@@H]2[C@H]1O"
# output 64

---

What minimum inhibitory concentration was measured for each of the following?
# Test system: Histophilus somni
# experimental protocol: minimum inhibitory concentration (MIC)
# condition context: isolate (source animal id): 17

# input # return recorded minimum inhibitory concentration for entry CCCNC[C@]1(O)[C@H](C)O[C@@H](O[C@H]2[C@H](C)[C@@H](O[C@@H]3O[C@H](C)C[C@H](N(C)C)[C@H]3O)[C@](C)(O)C[C@@H](C)CN[C@H](C)[C@@H](O)[C@](C)(O)[C@@H](CC)OC(=O)[C@@H]2C)C[C@@]1(C)OC [Tulathromycin]
# output ≤ 8 µg/mL

# input # return recorded minimum inhibitory concentration for entry CCCN1C[C@H](C)[C@@H](O)[C@](C)(O)[C@@H](CC)OC(=O)[C@H](C)[C@@H](O[C@H]2C[C@@](C)(OC)[C@@H](O)[C@H](C)O2)[C@H](C)[C@@H](O[C@@H]2O[C@H](C)C[C@H](N(C)C)[C@H]2O)[C@](C)(O)C[C@H]1C [Gamithromycin]
# output ≤ 1 µg/mL

# input # return recorded minimum inhibitory concentration for entry C=C[C@]1(C)C[C@@H](OC(=O)CSCCN(CC)CC)[C@]2(C)[C@H](C)CC[C@]3(CCC(=O)[C@H]32)[C@@H](C)[C@@H]1O [Tiamulin]
# output 1 µg/mL

# input # return recorded minimum inhibitory concentration for entry CC[C@H]1OC(=O)C[C@@H](O)[C@H](C)[C@@H](O[C@@H]2O[C@H](C)[C@@H](O)[C@H](N(C)C)[C@H]2O)[C@@H](CCN2C[C@H](C)C[C@H](C)C2)C[C@@H](C)C(=O)/C=C/C(C)=C/[C@@H]1CO[C@@H]1O[C@H](C)[C@@H](O)[C@@H](OC)[C@H]1OC [Tilmicosin]
# output ≤ 2 µg/mL

# input # return recorded minimum inhibitory concentration for entry CC[C@H]1OC(=O)C[C@@H](O)[C@H](C)[C@@H](O[C@@H]2O[C@H](C)[C@@H](O[C@H]3C[C@@](C)(O)[C@@H](O)[C@H](C)O3)[C@H](N(C)C)[C@H]2O)[C@@H](CC=O)C[C@@H](C)C(=O)/C=C/C(C)=C/[C@@H]1CO[C@@H]1O[C@H](C)[C@@H](O)[C@@H](OC)[C@H]1OC [Tylosin]
# output 8 µg/mL

# input # return recorded minimum inhibitory concentration for entry CNC(C)C1CCC(N)C(OC2C(N)CC(N)C(OC3OCC(C)(O)C(NC)C3O)C2O)O1 (configuration not stated) [Gentamicin]
# output ≤ 1 µg/mL

# input # return recorded minimum inhibitory concentration for entry CN[C@@H]1[C@H](O)[C@H](NC)[C@H]2O[C@@]3(O)C(=O)C[C@@H](C)O[C@H]3O[C@@H]2[C@H]1O [Spectinomycin]
# output ≤ 8 µg/mL
